What MIC was measured for each of the following?
system: S. marcescens IAM 1184; assay: MIC on standard strains, standard method of Japan Society of Chemotherapy; type: cell-based; conditions: Serratia marcescens, IAM1184, S. marcescens IAM 1184; read-out: MIC
The reply must contain the numeric value and, after it, the unit.

Exam item: Query MIC on S. marcescens IAM 1184 for Nc1nc(-c2cc[n+](CC3=C(C(=O)[O-])N4C(=O)[C@@H](NC(=O)/C(=N\O)c5csc(N)n5)[C@H]4SC3)cc2)n[nH]1 [Ex. 16]
Marked response: 0.2 µg/mL

Exam item: Try the compound NC(=O)Nc1ccc[n+](CC2=C(C(=O)[O-])N3C(=O)[C@@H](NC(=O)/C(=N\O)c4nsc(N)n4)[C@H]3SC2)c1 [Ex. 2]
Marked response: 0.39 µg/mL

Exam item: Try the compound CO[C@@]1(NC(=O)CSC(F)F)C(=O)N2C(C(=O)O)=C(CSc3nnnn3CCO)CO[C@@H]21 [FMOX, flomoxef, reference compound]
Marked response: 0.2 µg/mL

Exam item: Try the compound Nc1nc(/C(=N/O)C(=O)N[C@@H]2C(=O)N3C(C(=O)[O-])=C(C[n+]4ccc(-c5nnco5)cc4)CS[C@H]23)cs1 [Ex. 18]
Marked response: 0.39 µg/mL

Exam item: Try the compound NC(=NO)c1cc[n+](CC2=C(C(=O)[O-])N3C(=O)[C@@H](NC(=O)/C(=N\O)c4csc(N)n4)[C@H]3SC2)cc1 [Ex. 20]
Marked response: 0.1 µg/mL

Exam item: Try the compound Nc1nc(-c2cc[n+](CC3=C(C(=O)[O-])N4C(=O)[C@@H](NC(=O)/C(=N\O)c5csc(N)n5)[C@H]4SC3)cc2)no1 [Ex. 13]
Marked response: 0.39 µg/mL
